The entries below come with measured pIC50 values attached.
biological target: Heat shock protein 75 kDa, mitochondrial (Homo sapiens, UniProt Q12931); assay: Displacement of PU-FITC3 from recombinant TRAP-1 (unknown origin) after 24 hrs by fluorescence polarization assay
Sequence (Q12931 whole entry): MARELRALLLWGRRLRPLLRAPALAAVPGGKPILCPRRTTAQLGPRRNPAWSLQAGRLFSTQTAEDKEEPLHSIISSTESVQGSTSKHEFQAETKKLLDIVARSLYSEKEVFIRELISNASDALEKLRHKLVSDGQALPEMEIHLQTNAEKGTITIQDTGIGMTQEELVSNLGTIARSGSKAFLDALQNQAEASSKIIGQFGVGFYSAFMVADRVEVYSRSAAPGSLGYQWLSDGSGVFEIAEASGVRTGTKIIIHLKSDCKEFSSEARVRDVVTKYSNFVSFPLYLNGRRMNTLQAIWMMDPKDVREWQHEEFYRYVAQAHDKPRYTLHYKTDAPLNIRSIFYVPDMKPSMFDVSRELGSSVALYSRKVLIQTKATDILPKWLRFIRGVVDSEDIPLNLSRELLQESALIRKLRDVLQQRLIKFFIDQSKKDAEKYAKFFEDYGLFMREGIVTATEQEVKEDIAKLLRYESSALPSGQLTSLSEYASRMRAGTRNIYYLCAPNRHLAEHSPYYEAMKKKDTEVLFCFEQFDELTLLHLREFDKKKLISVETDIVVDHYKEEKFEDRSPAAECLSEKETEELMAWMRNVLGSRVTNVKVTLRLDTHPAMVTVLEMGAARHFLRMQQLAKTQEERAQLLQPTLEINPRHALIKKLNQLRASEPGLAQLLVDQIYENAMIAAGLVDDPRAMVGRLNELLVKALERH
pIC50: −log10 of the molar value.
quantity: pIC50

INSERT INTO results (compound, modifier_sign, value_measured) VALUES
  ('C#CCCCn1c(Sc2cc(Cl)nc(Cl)c2)nc2c(N)ncnc21', '=', 5.02),
  ('CC(C)NCCCn1c(Sc2ccc(Cl)cc2Cl)nc2c(N)nccc21', '=', 4.85),
  ('C#CCCCn1c(Sc2cc(Cl)cc(Cl)c2)nc2c(N)ncnc21', '=', 4.08),
  ('C#CCCn1c(Sc2ccc(Cl)cc2Cl)nc2c(N)ncnc21', '=', 5.14),
  ('C#CCC(CC)n1c(Sc2ccc(Cl)cc2Cl)nc2c(N)ncnc21 (centres undefined)', '<', 4.30),
  ('CC(C)NCCCn1c(Sc2cc(Cl)cc(Cl)c2)nc2c(N)nccc21', '=', 5.14),
  ('CCCC(C)n1c(Sc2ccc(Cl)cc2Cl)nc2c(N)ncnc21 (centres undefined)', '<', 4.30),
  ('C#CCCCn1c(C(=O)c2ccc(Cl)cc2Cl)nc2c(N)ncnc21', '=', 5.30),
  ('C#CCCCn1c(Sc2ccc(Cl)c(Cl)c2Cl)nc2c(N)ncnc21', '=', 5.44);
